Protocol description: Cytotoxicity against African green monkey Vero E6 cells measured after 72 hrs by crystal violet staining based analysis
Assay type: toxicity, cell-based, Vero C1008
Condition details: chlorocebus sabaeus, Vero E6 cells
Outcome measure: CC50 at 72 h (µg/mL)
Give just the number in µg/mL; leave the unit off.

Summary for this molecule, CO[C@@]12C=CC(=O)C[C@@H]1[n+]1c(c(NC(C)(C)C)n3c(-c4ccccc4)c(-c4ccccc4)sc31)CC2.O=S(=O)([O-])C(F)(F)F : CC50 at 72 h is 89.7

====

Protocol description: Selectivity index, ratio of CC50 for African green monkey Vero E6 cells to IC50 for antiviral activity against SARS-CoV-2 NRC-03-nhCoV infected in african green monkey Vero E6 cells
Format: toxicity, cell-based, Vero C1008
Condition details: read-out: Ratio CC50/IC50
A collection of compounds and their measured selectivity ratio
Give the figure by itself; no unit, no explanation.

Below: 2 compounds and their reported selectivity ratio.
>  <Query smiles>
CC1(C)[C@H]2COc3ccc4ccccc4c3[C@H]2N=C2SC=C(c3ccc(S(=O)(=O)N4CCOCC4)cc3)N21

>  <selectivity ratio>
0.64

$$$$
>  <Query smiles>
CO[C@@]12C=CC(=O)C[C@@H]1[n+]1c(c(NC(C)(C)C)n3c(-c4ccccc4)c(-c4ccccc4)sc31)CC2.O=S(=O)([O-])C(F)(F)F

>  <selectivity ratio>
0.41

$$$$

COc1ccc2[nH]c3c(c2c1)C[C@]1(OC)CC[C@H]2c4[nH]c5ccccc5c4CCN2[C@@H]1C3 has a reported selectivity ratio of 4.6

====

Target under test: Replicase polyprotein 1ab (Severe acute respiratory syndrome coronavirus 2, UniProt P0DTD1)
Protocol description: Inhibition of recombinant SARS CoV-2 PL protease incubated for 2 hrs followed by substrate addition and measured after 1 hr by fluorescence based analysis
Outcome measure: pIC50
As a rule, pIC50 stands for the negative log10 of the concentration, concentration in M.

Before answering, review these 3 worked examples.
>  <Compound>
CC1=C(c2cccc3c2OCO3)N2C(=N[C@@H]3c4c(ccc5ccccc45)OC[C@@H]3C2(C)C)S1

>  <pIC50>
4.14

$$$$
>  <Compound>
CC1(C)[C@H]2COc3ccc4ccccc4c3[C@H]2N=C2SC=C(c3ccc(S(=O)(=O)N4CCOCC4)cc3)N21

>  <pIC50>
6.92

$$$$
>  <Compound>
COC(=O)[C@@H]1CC2(C(=O)Nc3ccccc32)C2CC[C@@]3(OC)C=CC(=O)C[C@H]3N21 (stereo not given in full)

>  <pIC50>
4.99

$$$$

Reported pIC50 for COC(=O)CC1COc2c(cc3c4c2CCCN4CCC3)-c2c(NC(C)(C)C)n3c(-c4ccc(F)cc4)c(C)sc3[n+]21 (stereo not given) was 5.25

====

Protocol description: Aqueous solubility of the compound in PBS buffer at pH 7.4 at 200 uM by microplate reader method
Assay type: physicochemical
Outcome measure: solubility at 200 µM (µM)
// units = µM; emit number, no label

>  <Query smiles>
CC1(C)[C@H]2COc3ccc4ccccc4c3[C@H]2N=C2SC=C(c3ccc(S(=O)(=O)N4CCOCC4)cc3)N21

>  <Outcome measure>
solubility at 200 µM

>  <Recorded result>
56.1

$$$$

// sample COc1ccc2[nH]c3c(c2c1)C[C@]1(OC)CC[C@H]2c4[nH]c5ccccc5c4CCN2[C@@H]1C3 , its solubility at 200 µM was 166
